ASSAY EXPLANATION: NCI Yeast Anticancer Drug Screen. Data for the rad50 strain (AID 155);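 also: 0% = growth of vehicle-only cultures of the same strain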
MEASUREMENT SETUP: S. cerevisiae rad50 strain growth inhibition; at 50.0 µM; active compounds read high
This is part of a sample that, as a whole, favours compounds with a hit. Of some 79,000 tested, about 15% had one in any assay.
Reported values of growth inhibition for individual entries
Respond numerically; units are % and should not be typed.

O=C(C[n+]1ccccc1)N/N=C(/CCC(=O)N(Cc1ccccc1)Cc1ccccc1)CC(=O)c1ccccc1: -21.1
Cc1onc(-c2ccccc2)c1C(=O)N1CCCN2C(=O)c3ccccc3C21 (stereo unspecified): -0.3
NC(=O)N/N=C1\CC2CC1C1CCCC21 (stereo unspecified): 8.05

Record summary for C=C(C)C(=O)OCCN(CC)CC : reported growth inhibition = 33.9

Record summary for c1ccc2cc(CNCCCCNCCCNCc3ccc4ccccc4c3)ccc2c1 : reported growth inhibition = 63.8

Record summary for c1ccc(-c2nnc(-c3ccccc3)c3nonc23)cc1 : reported growth inhibition = 0.55

Reference source for all entries: PubChem BioAssay (NCI)
